- assayed.system: human PAR-2 (hPAR-2) receptor (Homo sapiens)
- Construct: endogenous in cells
- Sequence (P55085 26-397): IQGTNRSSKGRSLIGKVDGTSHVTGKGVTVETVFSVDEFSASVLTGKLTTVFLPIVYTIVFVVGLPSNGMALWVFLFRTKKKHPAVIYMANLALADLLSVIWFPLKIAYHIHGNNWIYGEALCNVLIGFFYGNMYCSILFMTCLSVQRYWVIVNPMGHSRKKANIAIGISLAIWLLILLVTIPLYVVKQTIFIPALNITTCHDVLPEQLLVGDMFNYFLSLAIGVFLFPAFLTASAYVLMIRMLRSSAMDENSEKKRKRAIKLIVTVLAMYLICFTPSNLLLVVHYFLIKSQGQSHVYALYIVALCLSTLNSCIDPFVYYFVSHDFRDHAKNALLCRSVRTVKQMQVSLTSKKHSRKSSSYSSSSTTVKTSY
- test.description: In vitro human PAR-2 functional antagonist activity using calcium assays
- experimental.parameters: hPAR-2 endogenously expressed in HEK-293 cells; stimulated by 2-Furoyl-LIGRLO-NH2 peptide; Fluo4AM intracellular calcium, FLIPR Tetra
pIC50: −log10 of the molar value.
Field: pIC50. Provide a value for each of the compounds that follow.

{"compound": "CC1(C)CN(c2ccc(Cl)c(F)c2)c2ccc(C(=O)N3CCN(c4cc(CC(=O)O)ccn4)CC3(C)C)nc21 [Example 115]", "pIC50": "> 6.30"}

Please supply pIC50 for each of the following items, keeping them in order.
1. CC1(C)C(=O)NCCN1C(=O)c1ccc2c(n1)[C@@]1(C)CCO[C@H]1N2c1ccc(Cl)c(F)c1 (single isomer, unassigned) [Example 62]
2. COCC1CC2(C1)CN(c1ccc(Cl)c(F)c1)c1ccc(C(=O)N3CCN(c4ccc(CC(=O)O)cn4)CC3(C)C)nc12 (stereo not drawn) [Example 239]

1. > 6.30
2. > 6.30
